Exercise: for every item that follows, state its recorded optical density.
# target-desc: mouse ACVR2A (mouse, UniProt P27038 20-135, limits assumed); further: test concentration or dose not given here
# Sequence (P27038 20-135 limits assumed): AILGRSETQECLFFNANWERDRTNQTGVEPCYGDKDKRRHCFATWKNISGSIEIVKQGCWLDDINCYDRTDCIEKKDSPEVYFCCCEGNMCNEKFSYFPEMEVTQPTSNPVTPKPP
# assay: ELISA
Give bare numbers, in OD.

Give optical density for each listed item.
1. 369_H03 (antibody, V domains shown, Group I) VH: EVQLLESGGGLVQPGGSLRLSCAASGFTFSSYSMHWVRQAPGKGLEWVASINYNSGYKSYADSVKGRFTISRDNSKNTLYLQMNSLRAEDTAVYYCARAANWHDTALDYWGQGTLVTVSS VL: DIQMTQSPSSLSASVGDRVTITCRASQSIVSYLNWYQQKPGKAPKLLIYATTSRASGVPSRFSGSGSGTDFTLTISSLQPEDFATYYCQQSYDTPLTFGGGTKVEIK
2. 368_A12 (antibody, V domains shown, Group I) VH: EVQLLESGGGLVQPGGSLRLSCAASGFTFDSYSMHWVRQAPGKGLEWVSSINYNSGYKGYADSVKGRFTISRDNSKNTLYLQMNSLRAEDTAVYYCARAANWHDTALDYWGQGTLVTVSS VL: DIQMTQSPSSLSASVGDRVTITCRASQSILTYLNWYQQKPGKAPKLVIYAATSRASGVPSRFSGSGSGTDFTLTISSLQPEDFATYYCQQSYDSPLTFGGGTKVEIK
3. 366_E01 (antibody, V domains shown, Group III) VH: EVQLLESGGGLVQPGGSLRLSCAASGFTFDSYGMNWVRQAPGKGLEWVSNINYNGGYKSYADSVKGRFTISRDNSKNTLYLQMNSLRAEDTAVYYCARGANWHDTHLDYWGQGTLVTVSS VL: DIQMTQSPSSLSASVGDRVTITCRASQSILTYLNWYQQKPGKAPKLLIYAATSRASGVPSRFSGSGSGTDFTLTISSLQPEDFATYYCQQSYSSPLTFGGGTKVEIK
4. 376_D08 (antibody, V domains shown, Group II) VH: EVQLLESGGGLVQPGGSLRLSCAASGFTFDSYGMNWVRQAPGKGLEWVANINYNSGYKSYADSVKGRFTISRDNSKNTLYLQMNSLRAEDTAVYYCARAATWHDTALDYWGQGTLVTVSS VL: DIQMTQSPSSLSASVGDRVTITCRASQSILTYLNWYQQKPGKAPKLVIYYANNRPSGVPSRFSGSGSGTDFTLTISSLQPEDFATYYCQQSYSNPLTFGGGTKVEIK

Result:
1. 3.08
2. 2.78
3. 2.72
4. 3.71
